biological target: recombinant human PD1 protein (human, UniProt Q15116 25-170, limits assumed); assay: binding ELISA, plate-coated recombinant human PD1
Sequence (Q15116 25-170 limits assumed): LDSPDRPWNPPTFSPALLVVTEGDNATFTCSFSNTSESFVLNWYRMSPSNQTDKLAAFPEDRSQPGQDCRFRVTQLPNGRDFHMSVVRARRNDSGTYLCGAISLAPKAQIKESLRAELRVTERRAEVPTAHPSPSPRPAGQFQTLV
Property Label: pEC50
Lab note: report pEC50 as minus log10 of the concentration in molar units, number only.

Need pEC50, item P-1151 (antibody, human IgG1, kappa, V domains shown, Full-length IgG1 L234A/L235A/G237A, kappa) VH: QVQLVQSGVEVKKPGASVKVSCKASGYTFTNYYMYWVRQAPGQGLEWMGGINPSNGGTNYAQKFQGRVTLTTDSSTTTAYMELKSLQFDDTAVYYCARRDYRFDMGFDYWGQGTTVTVSS VL: EIVLTQSPATLSLSPGERATLSCRASQGVSTSGYSYLHWYQQKPGQAPRLLIYLASYRASGVPARFSGSGSGTDFTLTISSLEPEDFAVYYCQHSRDLPLTFGGGTKVEIKR
10.19

Follow-up item: P-1148 (antibody, human IgG1, kappa, V domains shown, Full-length IgG1 L234A/L235A/G237A, kappa) VH: QVQLVQSGVEVKKPGASVKVSCKASGYTFTNYYMYWVRQAPGQGLEWMGGINPSNGGTNFAQKFQGRVTLTTDSSTTTAYMELKSLQFDDTAVYYCARRDYRFDMGFDYWGQGTTVTVSS VL: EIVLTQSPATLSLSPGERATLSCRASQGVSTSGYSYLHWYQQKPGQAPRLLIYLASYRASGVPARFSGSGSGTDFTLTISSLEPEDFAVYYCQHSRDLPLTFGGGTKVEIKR
10.03
